Test: gradient 5% acetonitrile 3 min, to 50% in 2 min, to 85% in 15 min, held 3 min, 100 µL/min
Conditions: column: Zorbax Extend-C18 2.1 x 50 mm; eluents: water / acetonitrile, 0.1% formic acid
readout: RP-LC retention time (s)

The following compounds have reported results that may help.
>>> df
                                   compound  readout_unit  measured_result
0  COc1ccc2sc(OC3CCN(C(=O)c4cnn(-c5ccccc5)n4)CC3)nc2c1             s             1140
1   COC(=O)c1ccc(NC(=O)CSc2ncnc3c2nnn3C)cc1             s              683
2  CC(C)N1CCN(c2cc(-c3nc(-c4cccc(F)c4)no3)c3ccccc3n2)CC1             s              890
3  Cc1cccc(C)c1NC(=O)Cn1nc2cc(-c3ccccc3)nc(C)n2c1=O             s              832
4  CC(C)N1C(=O)c2cccnc2Sc2cc(NC(=O)c3ccncc3)ccc21             s              662

(P) O=C(NC1CC1)C1CC(=O)N(c2ccc3c(c2)CCN3C(=O)C2CC2)C1 (stereo unspecified)
(Q) COc1cc(/C=C(\OC(C)=O)c2ccc3c(c2)OCO3)cc(OC)c1OC
Input line: Pick the one with the larger RP-LC retention time: P vs Q Identify your selection by its label.
Output line: Q

====

Assay: gradient 5% acetonitrile 3 min, to 50% in 2 min, to 85% in 15 min, held 3 min, 100 µL/min
Settings: column: Zorbax Extend-C18 2.1 x 50 mm; eluents: water / acetonitrile, 0.1% formic acid
readout: RP-LC retention time (s)

>>> df
                                   compound               readout  readout_unit  measured_result
0  CCc1ccc(C2=C(C)C(N3CCC(NC(=O)NCCCOC)CC3)=NS2(=O)=O)cc1  RP-LC retention time             s              739
1  COc1cc2c(C(=O)Oc3cccnc3)cn(-c3ccccc3)c(=O)c2cc1OC  RP-LC retention time             s              836
2                  O=C(O)/C=C\C(=O)Nc1nccs1  RP-LC retention time             s              646
3  Cc1ccc(C(=O)N2CCC(c3nc(-c4ccncc4)n[nH]3)CC2)s1  RP-LC retention time             s              597
4  Cc1ccc(C)c(N2CCN(c3ccnc(SCC(=O)Nc4ccc(F)cc4)n3)CC2)c1  RP-LC retention time             s              891
5  CCCc1cc(N2CCN(C(=O)c3ccc(N(C)C)cc3)CC2)nc2nnc(CC)n12  RP-LC retention time             s              649
6  CCC1CCCCN1C(=O)c1cnc2nc(C)ccc2c1Nc1ccc2c(c1)OCO2 (stereo not given)  RP-LC retention time             s              623
7             Nc1nc(N)nc(-c2cc(Cl)ccc2Cl)n1  RP-LC retention time             s              714
8  CCc1noc2nc(C)n(CC(=O)NCCC3=CCCCC3)c(=O)c12  RP-LC retention time             s              908
9  CC1CCN(c2cc(-c3noc(C(=O)N4CCCC4)n3)ccn2)CC1  RP-LC retention time             s              764
